Target: G protein-activated inward rectifier potassium channel 2 (Homo sapiens) + G protein-activated inward rectifier potassium channel 1 (Homo sapiens) (UniProt P48051+P48549)
Sequence (P48051 whole entry, looked up): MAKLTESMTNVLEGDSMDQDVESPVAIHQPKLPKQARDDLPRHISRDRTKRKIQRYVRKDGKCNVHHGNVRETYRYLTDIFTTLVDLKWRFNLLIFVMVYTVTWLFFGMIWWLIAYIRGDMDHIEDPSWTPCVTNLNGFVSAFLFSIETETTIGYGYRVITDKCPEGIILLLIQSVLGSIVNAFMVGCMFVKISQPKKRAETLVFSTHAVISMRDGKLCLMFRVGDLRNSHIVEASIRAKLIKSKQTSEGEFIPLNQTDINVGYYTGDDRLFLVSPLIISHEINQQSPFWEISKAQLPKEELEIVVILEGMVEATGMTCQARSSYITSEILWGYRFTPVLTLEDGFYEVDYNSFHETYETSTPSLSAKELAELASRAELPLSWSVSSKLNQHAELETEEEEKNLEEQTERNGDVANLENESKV
Sequence (P48549 whole entry, looked up): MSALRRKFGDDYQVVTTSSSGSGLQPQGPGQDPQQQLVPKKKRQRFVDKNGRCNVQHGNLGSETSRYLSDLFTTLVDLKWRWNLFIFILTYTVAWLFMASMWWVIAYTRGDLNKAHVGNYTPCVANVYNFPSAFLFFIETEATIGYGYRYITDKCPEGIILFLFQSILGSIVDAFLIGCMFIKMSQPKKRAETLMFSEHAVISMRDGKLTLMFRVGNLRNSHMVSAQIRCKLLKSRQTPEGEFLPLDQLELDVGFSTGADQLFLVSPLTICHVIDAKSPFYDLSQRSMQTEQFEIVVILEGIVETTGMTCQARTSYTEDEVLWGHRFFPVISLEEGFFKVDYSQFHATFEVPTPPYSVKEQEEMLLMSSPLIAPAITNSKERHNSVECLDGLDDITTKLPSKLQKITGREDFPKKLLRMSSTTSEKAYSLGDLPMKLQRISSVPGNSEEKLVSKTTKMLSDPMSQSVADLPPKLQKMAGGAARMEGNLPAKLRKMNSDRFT
Test: GIRK1/2 thallium flux modulators, retest, confirmation, cell-based, HEK293 rmGlu8/hGIRK1/2, FluoZin-2 (AID 623911)
Conditions: HEK293 rmGlu8/hGIRK1/2, thallium flux FluoZin-2; actives lie on both sides; glutamate co-added at its EC20 level
The campaign covered roughly 2,100 compounds. About 770 (37%) were called active. The list shows a part of the results.
Some molecules, each annotated with its measured manual score.
Number only, please.

Examples with answers:
molecule=CCOc1ccccc1NC(=O)CSc1nnc(-c2ccccn2)n1Cc1ccco1 attribute_measured="manual score" quantitative_result=0
molecule=CCOc1ccc(-n2c(SCc3nc(-c4cccs4)no3)nnc2-c2ccncc2)cc1 attribute_measured="manual score" quantitative_result=0
molecule=CCOc1ccc(-c2nc(-c3ccc(OC)cc3)no2)cc1OCC attribute_measured="manual score" quantitative_result=0
molecule=COc1ccc(NC(=S)SC)cc1OC attribute_measured="manual score" quantitative_result=0
molecule=Cc1cccc(NC(=O)NC(=S)NC(=O)c2ccccc2)c1 attribute_measured="manual score" quantitative_result=0

Lookup: Requested field: manual score. Item: `CCOC(=O)c1cccc(-n2c(C)cc(C=O)c2C)c1`
Found: 0

Lookup: Requested field: manual score. Item: N#CC1(Cc2ccc([N+](=O)[O-])cc2)c2ccccc2C=CN1C(=O)c1ccccc1 (stereo unspecified)
Found: 0

Lookup: Requested field: manual score. Item: `COc1ccc(CCC(=O)NCc2cnn(C)c2)cc1`
Found: 0

Lookup: Requested field: manual score. Item: CC1Cc2nc(SCC(=O)Nc3nc4ccccc4s3)n(C)c(=O)c2S1 (stereo unspecified)
Found: -0.5

----------
Biological target: G protein-activated inward rectifier potassium channel 2 (Homo sapiens) + G protein-activated inward rectifier potassium channel 1 (Homo sapiens) (UniProt P48051+P48549)
Experiment: GIRK1/2 thallium flux modulators, retest, confirmation, cell-based, HEK293 rmGlu8/hGIRK1/2, FluoZin-2 (AID 623911)
Details: HEK293 rmGlu8/hGIRK1/2, thallium flux FluoZin-2; actives lie on both sides; glutamate co-added at its EC20 level
The whole screen tested about 2,100 compounds, of which about 770 (37%) were called active. Some of the results follow.
Some molecules, each annotated with its measured manual score.
Number only, please.

Examples with answers:
molecule="COC(=O)c1ccccc1NC(=S)NC(NC(=O)c1ccco1)C(Cl)(Cl)Cl (stereo unspecified)" attribute_measured="manual score" quantitative_result=0
molecule="COc1ccccc1OCC(=O)Nc1sc2c(c1C(=O)NCC1CCCO1)CCC2 (stereo unspecified)" attribute_measured="manual score" quantitative_result=0
molecule=CCn1c(=O)cc(OCC(=O)Nc2cccc(C)n2)c2ccccc21 attribute_measured="manual score" quantitative_result=0
molecule="COc1c(Cl)cc(Cl)cc1CNCCNCC(C)O (stereo unspecified)" attribute_measured="manual score" quantitative_result=1
molecule=O=C(COc1ccc(Cl)cc1Cl)NNC(=S)Nc1ccc(F)cc1 attribute_measured="manual score" quantitative_result=0
molecule=O=P(CCCCCCCCCP(=O)(c1ccccc1)c1ccccc1)(c1ccccc1)c1ccccc1 attribute_measured="manual score" quantitative_result=-1
molecule=CCOc1cc(C(=O)NCc2ccncc2)cc(OCC)c1OCC attribute_measured="manual score" quantitative_result=0
molecule=Cc1nnc(NC(=O)c2ccco2)s1 attribute_measured="manual score" quantitative_result=0
molecule=CCOC(=O)c1c(NS(=O)(=O)c2cccc(OC)c2)sc2c1CCC2 attribute_measured="manual score" quantitative_result=1
molecule=COC(=O)c1[nH]c2ccc(C)cc2c1NC(=O)CCN1CCN(Cc2ccc3c(c2)OCO3)CC1 attribute_measured="manual score" quantitative_result=-1

Shift focus to the following entry.
Lookup: Requested field: manual score. Item: `CCN(CC)CCN(CC)Cc1ccccc1Br`
Found: -1

----------
Target: G protein-activated inward rectifier potassium channel 2 (Homo sapiens) + G protein-activated inward rectifier potassium channel 1 (Homo sapiens) (UniProt P48051+P48549)
Experiment: GIRK1/2 thallium flux modulators, retest, confirmation, cell-based, HEK293 rmGlu8/hGIRK1/2, FluoZin-2 (AID 623911)
Conditions: HEK293 rmGlu8/hGIRK1/2, thallium flux FluoZin-2; actives lie on both sides; glutamate co-added at its EC20 level
The whole screen tested about 2,100 compounds, of which about 770 (37%) were called active.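 Rule for the calls: active = by-eye trace score of 1 for enhancers or -1 for inhibitors, so actives lie on both sides (some results past the limit were not filed as active); inactive = score 0, or 3 fluorescent, or 4 baseline rise.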 The list shows a part of the results.
Output constraint: value belongs to T (active), F (inactive)

Worked examples, 4 molecules total:
chem_smiles=O=C(NC(=S)N1CCN(c2c(Cl)cccc2[N+](=O)[O-])CC1)c1cccs1 classification=T
chem_smiles=COc1cccc(NC(=O)NCCCSC2CCCCC2)c1 classification=T
chem_smiles=O=C(NC(=S)N1CCN(c2ccc(Cl)cc2[N+](=O)[O-])CC1)c1cccs1 classification=T
chem_smiles=COc1cc2c(cc1NC(=O)COc1ccccc1OC)oc1ccccc12 classification=F

Lookup: Lab log entry: `O=C(NC(=S)Nc1ccccc1N1CCOCC1)c1cccs1` — outcome as called in the assay?
Found: F

Lookup: Lab log entry: `Nc1c(-c2ccccc2)cnn1-c1ccc(C(=O)O)cc1` — outcome as called in the assay?
Found: F

Lookup: Lab log entry: `O=C(NC(=S)Nc1cccc(Cl)c1N1CCCC1)c1ccc(-c2cccc([N+](=O)[O-])c2)o1` — outcome as called in the assay?
Found: F

Lookup: Lab log entry: `COC(=O)[C@H]1CCCN1C(=O)Nc1cccc(Oc2c(F)c(F)c(F)c(F)c2F)c1` — outcome as called in the assay?
Found: F

Lookup: Lab log entry: `Cc1ccc(NC(=S)Nc2ccc(Cl)c(Cl)c2)c(OC(F)F)c1` — outcome as called in the assay?
Found: T

Lookup: Lab log entry: `O=C(NC(=S)N1CCCCC1)c1cccs1` — outcome as called in the assay?
Found: T

Lookup: Lab log entry: `COC(=O)NC(=S)Nc1ccc(Oc2ccc(Cl)cc2Cl)c(Cl)c1` — outcome as called in the assay?
Found: F

----------
Target: G protein-activated inward rectifier potassium channel 2 (Homo sapiens) + G protein-activated inward rectifier potassium channel 1 (Homo sapiens) (UniProt P48051+P48549)
Test: GIRK1/2 thallium flux modulators, retest, confirmation, cell-based, HEK293 rmGlu8/hGIRK1/2, FluoZin-2 (AID 623911)
Settings: HEK293 rmGlu8/hGIRK1/2, thallium flux FluoZin-2; actives lie on both sides; glutamate co-added at its EC20 level
The campaign covered roughly 2,100 compounds. About 770 (37%) were called active.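 The calls were made as follows: active = by-eye trace score of 1 for enhancers or -1 for inhibitors, so actives lie on both sides (some results past the limit were not filed as active); inactive = score 0, or 3 fluorescent, or 4 baseline rise.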 The list shows a part of the results.
Output constraint: value belongs to active, inactive

Worked examples, 5 compounds total:
chem_smiles=CCOC(=O)CSc1nc(C)c2cc(OC)ccc2n1 classification=inactive
chem_smiles=CCOc1cc(C)nc(N2CCN(C3CCCCC3)CC2)n1 classification=active
chem_smiles=O=C(Nc1ccc(F)cc1)c1cccc2c1C(=O)N(Cc1ccccn1)C2 classification=inactive
chem_smiles=CCN(C#N)c1nc(NC(C)C)nc(NC(C)C)n1 classification=inactive
chem_smiles=CCOc1cccc(C(=O)NC(=S)Nc2ccccc2)c1 classification=inactive

Lookup: Lab log entry: `Cc1cc(C)nc(Sc2ncnc3sc4c(c23)CCC4)n1` — outcome as called in the assay?
Found: inactive

Lookup: Lab log entry: `O=c1c2c(nc3c(-c4ccc(Cl)cc4)c[nH]n13)CCCC2` — outcome as called in the assay?
Found: inactive

Lookup: Lab log entry: `O=C1NC(=O)/C(=C\c2ccccc2Oc2ccc(F)c(F)c2)S1` — outcome as called in the assay?
Found: inactive

Lookup: Lab log entry: `COc1ccc(C(=O)NC(=S)N(Cc2ccccc2)Cc2ccccc2)cc1` — outcome as called in the assay?
Found: active

----------
Target: G protein-activated inward rectifier potassium channel 2 (Homo sapiens) + G protein-activated inward rectifier potassium channel 1 (Homo sapiens) (UniProt P48051+P48549)
Experiment: GIRK1/2 thallium flux modulators, retest, confirmation, cell-based, HEK293 rmGlu8/hGIRK1/2, FluoZin-2 (AID 623911)
Conditions: HEK293 rmGlu8/hGIRK1/2, thallium flux FluoZin-2; actives lie on both sides; glutamate co-added at its EC20 level
Among all 2,100 compounds or so, about 770 (37%) were called active. This is one part of the list.
Note to self: use fulfilled only for manual score readings below 0; a reading exactly at 0 still gets not fulfilled.

Worked examples, 5 compounds total:
compound="Fc1cccc(C2NN=C(c3ccccc3)S2)c1 (stereo not given)" classification="not fulfilled"
compound=Cc1ccc([N+](=O)[O-])cc1NC(=S)NC(=O)c1ccco1 classification="not fulfilled"
compound=CCCN(CCC)CCCNC(=O)c1cc2c(=O)n(C)c3ccccc3c2n1C classification=fulfilled
compound=C/C(=N\NC(=O)c1ccc(Cl)cc1)c1ccc(Br)s1 classification="not fulfilled"
compound=CCCSc1nc2sc3c(c2c(=O)[nH]1)CCN(Cc1ccccc1)C3 classification="not fulfilled"

Lookup: Here's an entry: `Cc1ccc2nsnc2c1NC(=S)NC(=O)c1ccco1` . Is its manual score below 0?
Found: not fulfilled

Lookup: Here's an entry: `O=C(NC(=S)Nc1ccc(Cl)cn1)c1cccs1` . Is its manual score below 0?
Found: not fulfilled

Lookup: Here's an entry: `CN(CCNC(=O)c1cc2c(=O)n(C)c3ccccc3c2n1C)Cc1ccccc1` . Is its manual score below 0?
Found: fulfilled

Lookup: Here's an entry: `COc1ccc(OCC(=O)NNC(=O)C(=O)Nc2ccc(C)cc2)cc1` . Is its manual score below 0?
Found: not fulfilled

Lookup: Here's an entry: `COC(=O)c1ccc(C(=O)OC)c(NC(=O)CSc2nc(-c3ccco3)cc(C(F)(F)F)n2)c1` . Is its manual score below 0?
Found: fulfilled

Lookup: Here's an entry: `COc1cc(-c2nnc(CSc3nc4ccccc4s3)o2)cc(OC)c1OC` . Is its manual score below 0?
Found: fulfilled
